Listed below are molecules with log10 of IC50 for IRAK4 (Homo sapiens (Human)), each taken from published literature.
Parameter value (number): base-10 log of IC50 in nM.

CC(C)Nc1cc(-c2cnc(-c3cccc(C#N)c3)o2)ncc1C(=O)NC[C@@H](F)C(C)(C)O	1.74
CC(C)Nc1cc(Nc2ccc3ncsc3c2)ncc1C(=O)N[C@H]1CC[C@H](C(=O)NC(C)C)CC1	0.30
CC(C)Nc1cc(-n2ncc3cc(C#N)cnc32)ncc1-c1cc([C@@H]2C[C@H](O)CCN2)no1	1.00
CC(C)Oc1nc2nc([C@@]34CC[C@@](C)(C3)OC4)cn2cc1C(=O)Nc1cccn([C@@H]2CC23CC3)c1=O (single isomer, unassigned)	0.04
Cc1nc[nH]c1-c1ccc2ncnc(N[C@H]3CC[C@H](N4CCOCC4)CC3)c2c1	2.26

Okay, here is my list. What is log10 of IC50 for each of these?
1. CC(C)Nc1c(C(=O)NCC2CCS(=O)(=O)C2)cnc2c1[nH]c1cc(C#N)ccc12 (stereo not shown)
2. CC(C)Nc1cc(-n2ncc3cc(C#N)cnc32)ncc1-c1cc(C2CCNCC2)no1
3. Cc1cnn2c(-c3cc(NC(C)C)c(C(=O)NC[C@@H](F)C(C)(C)O)cn3)cnc2c1

1: 0.86; 2: 0.60; 3: 0.85

====

A compilation of published IC50 results with IRAK4 (Homo sapiens (Human), UniProt Q9NWZ3).
Numbers only, in nM.

Known results for molecules:
CC(C)Nc1cc(Nc2ccc3ncsc3c2)ncc1C(=O)NCC[C@@H](C)NC(=O)[C@@H]1CC[C@H](F)C1	2.6
CC[C@@H]1CC(=O)N[C@@H]1COc1csc2cc(C(N)=O)c(OC)cc12	0.9

Which value of IC50 has been reported for `CC(C)Oc1cc2nc(C34COC(C3)C4)cn2cc1C(=O)Nc1cccn(C2CC2)c1=O` in the records?
1

====

Here, molecules appear alongside IC50 reported for IRAK4 (Homo sapiens (Human), UniProt Q9NWZ3) in the literature.

Answered cases to consult:
CN(C)[C@H]1CC[C@H](Nc2ncnc3sc4c(c23)C(C(=O)O)CC4)CC1 (stereo partly shown)	5000 to 20000 nM
Cn1cc(-c2cccc(-c3ncc(-c4cnn(C)c4)c(NC4CC(F)(F)C4)n3)c2)cn1	100 to 1000 nM
CN1CCC(n2cc(NC(=O)c3cnn4ccc(N[C@H]5CCCC[C@H]5N)nc34)c(C(N)=O)n2)CC1 (relative stereo)	2 nM
CC(=O)NC[C@H]1C[C@H](Nc2nc(-c3cccc(-c4cnn(C)c4)c3)ncc2-c2cnn(C)c2)C1	100 to 1000 nM

Can you give me IC50 for all of these, one by one?
1. CC(C)(O)[C@H](F)CNC(=O)c1cnc(-c2cnn3cc(Cl)cnc23)cc1NCC(F)F
2. Cc1cccc(-n2ncc3ccc(-c4ccc(C)c(C(C)N)n4)cc32)n1 (stereo not shown)
3. CC1(C)OC(=O)c2ccc(Nc3ncc(-c4nc(C5CCOCC5)no4)c(N[C@H](CO)c4ccccc4)n3)cc21

6 nM
< 100 nM
50 to 250 nM

====

// merged dataset of pIC50 values, system = UniProt Q9NWZ3, multiple refs
One number for each entry, as −log10 of the molar value.

COC(=O)N1CCN(c2cc3nc(CCC(C)(C)O)cn3cc2NC(=O)c2cccc(C(F)(F)F)n2)CC1	8.34
CCn1cc(Nc2cc(-c3cnc4cc(Cl)cnn34)ncc2C(=O)NC[C@@H](F)C(C)(C)O)cn1	8.52
CC(C)(O)CCc1cc(-c2cnc(-c3cnn4cc(C#N)cnc34)cc2NC2CCOCC2)n[nH]1	8.70
CCC(O)(CC)[C@H](F)CNC(=O)c1cnc(Nc2ccc3ncsc3c2)cc1NCC(C)(C)F	8.77
c1nc(N[C@H]2CC[C@H](N3CCOCC3)CC2)c2cc(-c3cc[nH]n3)ccc2n1	7.70
CC(C)Nc1cc(-c2cnn3cc(C4CC4)cnc23)ncc1C(=O)NC[C@@H](F)C(C)(C)O	7.12
CC(C)Oc1nc2nc([C@@]34CC[C@@](C)(C3)OC4)cn2cc1C(=O)Nc1cccn([C@H]2C[C@@H]2C)c1=O (single isomer, unassigned)	9.40
CC(=O)N1CCC(N2CC(n3cc(NC(=O)c4cccc(-c5cnn(C(C)(C)CO)c5)n4)c(C(F)F)n3)C2)CC1	8.74

List pIC50 for every entry below, keeping the order given.
1. CN(C)CC(=O)NC12CCC(Nc3cc(Nc4ccc5ncsc5c4)ncc3C(=O)NC[C@@H](F)C(C)(C)O)(CC1)C2
2. CC(C)Nc1cc(Nc2ccc3ncsc3c2)ncc1C(=O)NC[C@@H](F)C(C)(C)O
3. CC[C@@H]1[C@H](F)C(=O)N[C@@H]1COc1nccc2cc3c(=O)[nH]cc(C(C)C)c3cc12
4. CC(=O)N1CCC(NC(=O)c2cnc3ccc(-c4cn[nH]c4)cc3c2NC(C)C)CC1
5. CC(C)(O)[C@H](F)CNC(=O)c1cnc(Nc2ccc3ncccc3n2)cc1NC1CCOCC1F (stereo partly drawn)

[8.46, 8.59, 8.00, 8.00, 8.51]

Hi, could you look up pIC50 for each item in my list?
1. CC(C)Nc1cc(Nc2ccn3ncc(C#N)c3n2)ncc1C(=O)NC[C@@H](F)C(C)(C)O
2. COC(=O)N1CC(c2cc(-c3cnc(-n4ncc5cc(C#N)cnc54)cc3NC(C)C)on2)C1

8.44
8.40
